Conditions: 278.15 K; 15000 kPa; Liquid; Vibrating tube method
endpoint_label: mass density (kg/m3)

CCO [ethanol]	813.6
CCCCCCCCCO [nonan-1-ol]	845.1
CCCCCCO [hexan-1-ol]	838
CCCCCO [pentan-1-ol]	834.7
CCCCCCCCO [octan-1-ol]	843.7
CCCCCCCO [heptan-1-ol]	841.2
CCCCO [butan-1-ol]	830.9
CCCO [propan-1-ol]	826.2

---

Conditions: 348.15 K; 35000 kPa; Liquid; Vibrating tube method
endpoint_label: mass density (kg/m3)

CCCCCO [pentan-1-ol]	800.4
CCCCO [butan-1-ol]	795.6
CCCCCCCCCCCO [1-undecanol]	816.9
CCCCCCCCCCO [decan-1-ol]	815
CCCCCCCCO [octan-1-ol]	810.9
CCO [ethanol]	775.1
CCCCCCO [hexan-1-ol]	804.6
CCCO [propan-1-ol]	789.3
CCCCCCCCCO [nonan-1-ol]	812.9
CCCCCCCO [heptan-1-ol]	808.1

---

Conditions: 278.15 K; 25000 kPa; Liquid; Vibrating tube method
endpoint_label: mass density (kg/m3)

CCCCCO [pentan-1-ol]	840.4
CCCCCCO [hexan-1-ol]	843.6
CCCCCCCO [heptan-1-ol]	846.4
CCCCCCCCCO [nonan-1-ol]	850.3
CCCO [propan-1-ol]	832.6
CCCCO [butan-1-ol]	837
CCO [ethanol]	820.6
CCCCCCCCO [octan-1-ol]	849

---

Conditions: 328.15 K; 5000 kPa; Liquid; Vibrating tube method
endpoint_label: mass density (kg/m3)

CCCCCO	792.3
CCCCCCCCCCCO	810.8
CCO	763.7
CCCCO	786.7
CCCCCCCCO	804.1
CCCCCCO	797
CCCCCCCCCO	806.3
CCCO	779.7
CCCCCCCCCCO	808.5
CCCCCCCO	800.9

---

Settings: 338.15 K; 20000 kPa; Liquid; Vibrating tube method
endpoint_label: mass density (kg/m3)

CCCCO	791.4
CCCCCCCCCO	809.8
CCCCCO	796.7
CCCO	784.9
CCCCCCCCCCCO	813.8
CCO	769.9
CCCCCCO	801
CCCCCCCCO	807.8
CCCCCCCCCCO	812
CCCCCCCO	804.7

---

Details: 338.15 K; 15000 kPa; Liquid; Vibrating tube method
endpoint_label: mass density (kg/m3)

CCCCCCCCCCCO	810.6
CCCCCCCCCCO	808.7
CCCCCCO	797.4
CCCCO	787.4
CCCCCCCCCO	806.5
CCCCCCCO	801.2
CCCCCCCCO	804.4
CCCO	780.6
CCO	765.2
CCCCCO	792.9

---

Settings: 298.15 K; 60000 kPa; Liquid; Vibrating tube method
endpoint_label: mass density (kg/m3)

CCCCCCCCCCCO [1-undecanol]	858.7
CCCCCCCCO [octan-1-ol]	853.9
CCCCCCO [hexan-1-ol]	849.6
CCCCCCCCCCO [decan-1-ol]	856.8
CCCCCO [pentan-1-ol]	846.4
CCCCCCCCCO [nonan-1-ol]	855
CCCCCCCO [heptan-1-ol]	852.1
CCO [ethanol]	828.1
CCCCO [butan-1-ol]	843.3
CCCO [propan-1-ol]	839.2
